Numbers sourced from the Human Domainome abundance scans (Beltran et al. 2025).

B1: Cyclin-F, residues 28 to 80; numbered along this chain, P41002 (parent)
chain: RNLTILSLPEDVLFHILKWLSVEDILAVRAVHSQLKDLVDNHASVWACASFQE

Variants of: B1
Assay: abundance fitness (aPCA) (normalised: wild type 0, dead -1); higher = more abundant; growth selection in yeast, the domain comes from the species named
Conditions: Homo sapiens
Listed variants paired with reported abundance fitness

Before answering, review these 6 worked examples.
* V22F | -0.141
* E23G | -0.48
* A47C | -0.218
* R1N | 0.134
* Q34M | -0.156
* L26F | -0.424

Form field abundance fitness, entry "L26E" : -0.5

Form field abundance fitness, entry "K18T" : -0.254

Form field abundance fitness, entry "W46H" : -0.38

Form field abundance fitness, entry "N41E" : -0.039
